Values from patent US4818749A

# Target under test: angiotensin converting enzyme (ACE) (Rattus norvegicus)
# Construct: Drugs were injected intravenously; from tissue; host or cells: whole living animal (anesthetized Sprague-Dawley rat); no enzyme isolated
# Protocol: ACE inhibition in anesthetized rats: inhibition of angiotensin I pressor response after iv test drug
# Type: in vivo, Sprague-Dawley rats
# Test context: anesthetized Sprague-Dawley rats; drug iv; angiotensin I challenge 5 min after dosing; blood pressure response as percent of control; linear regression
Measurement label: ID50 (µg/kg)
Give the value in µg/kg but do not write µg/kg after it.

Exercise: Return ID50 for the following molecule: CCOC(=O)[C@H](COCc1ccccc1)NC(C)C(=O)N1CCC[C@H]1C(=O)O.Cl (stereo partly drawn) [Compound 2]
Key: 130

Exercise: Supply reported ID50 belonging to this molecule: CCOC(=O)[C@H](CSCc1ccccc1)NC(C)C(=O)N1CCC[C@H]1C(=O)O.Cl (stereo partly drawn) [Compound 1]
Key: 66

Exercise: Please give measured ID50 of the following entry: Br.CCOC(=O)[C@H](CSCc1ccccc1)N[C@H](C)C(=O)N1[C@H](C(=O)O)C[C@@H]2CCCC[C@@H]21 (relative stereo) [Compound 5]
Key: 350

Exercise: Note down ID50 recorded for CCOC(=O)[C@H](CSCCc1ccccc1)N[C@@H](C)C(=O)N1C2CCCCC2C[C@H]1C(=O)O.Cl (relative stereo) [Compound 8]
Key: 32

Exercise: State its ID50: CCOC(=O)[C@H](CSCc1ccccc1)NC(C)C(=O)N1C2CCCCC2C[C@H]1C(=O)O.Cl (relative stereo) [Compound 3]
Key: 30

Exercise: Indicate its recorded ID50; the molecule in question is CCOC(=O)[C@H](CSCc1ccc(C)cc1)NC(C)C(=O)N1C2CCCCC2C[C@H]1C(=O)O (relative stereo) [4-methylbenzyl-thiomethyl]
Key: 88

Exercise: Please indicate ID50 recorded for CCOC(=O)[C@H](CSCc1ccccc1)N[C@@H](C)C(=O)N1[C@H](C(=O)O)C[C@@H]2CCCC[C@@H]21 (relative stereo) [Compound 4]
Key: 29

Exercise: Supply reported ID50 belonging to this molecule: C[C@H](N[C@@H](CCc1ccccc1)C(=O)O)C(=O)N1CCC[C@H]1C(=O)O [enalapril diacid, reference compound]
Key: 15

Exercise: Given the molecule C[C@H](N[C@@H](CCc1ccc(C(=O)O)cc1)C(=O)O)C(=O)N1C2CCCCC2C[C@H]1C(=O)O (relative stereo) [Compound 10] , write its reported ID50.
Key: 11

----------
Could you please report measured ID50 for the items listed next?
# Target under test: angiotensin converting enzyme (ACE) (Rattus norvegicus, UniProt P47820)
# Construct: Drugs were injected intravenously; from tissue; host or cells: whole living animal (anesthetized Sprague-Dawley rat); no enzyme isolated
# Sequence (P47820 36-1313): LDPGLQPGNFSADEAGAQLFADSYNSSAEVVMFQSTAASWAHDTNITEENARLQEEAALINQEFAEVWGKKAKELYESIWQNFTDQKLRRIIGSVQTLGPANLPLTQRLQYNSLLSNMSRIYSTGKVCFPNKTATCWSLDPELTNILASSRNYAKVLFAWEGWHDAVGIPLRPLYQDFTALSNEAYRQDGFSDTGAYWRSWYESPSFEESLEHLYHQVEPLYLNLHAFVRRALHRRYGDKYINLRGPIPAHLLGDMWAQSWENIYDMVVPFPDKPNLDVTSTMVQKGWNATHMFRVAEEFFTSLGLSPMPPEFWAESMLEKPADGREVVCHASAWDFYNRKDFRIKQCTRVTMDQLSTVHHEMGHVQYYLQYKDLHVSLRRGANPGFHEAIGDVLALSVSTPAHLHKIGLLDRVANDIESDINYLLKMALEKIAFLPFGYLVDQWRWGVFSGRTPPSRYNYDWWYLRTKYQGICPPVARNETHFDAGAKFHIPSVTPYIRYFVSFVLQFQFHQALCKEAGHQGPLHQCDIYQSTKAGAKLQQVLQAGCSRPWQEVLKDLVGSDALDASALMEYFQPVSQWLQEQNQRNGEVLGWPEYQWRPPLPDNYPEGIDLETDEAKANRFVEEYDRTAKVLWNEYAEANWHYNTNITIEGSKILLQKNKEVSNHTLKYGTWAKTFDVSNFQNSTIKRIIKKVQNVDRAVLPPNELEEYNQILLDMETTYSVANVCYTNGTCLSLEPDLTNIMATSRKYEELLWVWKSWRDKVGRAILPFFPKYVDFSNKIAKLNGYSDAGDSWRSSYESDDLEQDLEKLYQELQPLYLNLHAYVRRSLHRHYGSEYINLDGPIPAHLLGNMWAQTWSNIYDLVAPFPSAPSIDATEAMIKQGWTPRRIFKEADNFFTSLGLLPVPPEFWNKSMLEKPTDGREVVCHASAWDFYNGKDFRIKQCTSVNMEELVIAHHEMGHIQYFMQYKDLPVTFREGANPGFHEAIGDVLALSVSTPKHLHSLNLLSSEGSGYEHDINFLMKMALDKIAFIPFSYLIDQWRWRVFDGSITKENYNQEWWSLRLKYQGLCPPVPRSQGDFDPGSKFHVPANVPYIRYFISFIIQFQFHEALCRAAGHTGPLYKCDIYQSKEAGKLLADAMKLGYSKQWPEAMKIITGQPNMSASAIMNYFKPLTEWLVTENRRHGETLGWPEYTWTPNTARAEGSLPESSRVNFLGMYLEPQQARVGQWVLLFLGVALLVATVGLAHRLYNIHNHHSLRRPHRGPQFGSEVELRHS
# Protocol: ACE inhibition in anesthetized rats: inhibition of angiotensin I pressor response after iv test drug
# Type: in vivo, Sprague-Dawley rats
# Test context: anesthetized Sprague-Dawley rats; drug iv; angiotensin I challenge 5 min after dosing; blood pressure response as percent of control; linear regression

Exercise: Determine from records and report ID50 for CCOC(=O)[C@H](CSCc1ccc2ccccc2c1)N[C@@H](C)C(=O)N1[C@H](C(=O)O)C[C@@H]2CCCC[C@@H]21.Cl (relative stereo) [Compound 6]
Key: > 100 µg/kg

Exercise: For CCOC(=O)[C@H](CSCc1ccc2ccccc2c1)N[C@H](C)C(=O)N1C2CCCCC2C[C@H]1C(=O)O.Cl (relative stereo) [Compound 7] , write its ID50.
Key: > 1,000 μg/kg

Exercise: Please supply the value of reported ID50 for the item CCOC(=O)[C@H](CSCCc1ccccc1)N[C@H](C)C(=O)N1[C@H](C(=O)O)C[C@@H]2CCCC[C@@H]21.Cl (relative stereo) [Compound 9]
Key: > 1,000 μg/kg
